Data credit: patent US11149018B2

molecular target: UniProtKB P43088; assay: In vitro test of inhibition of human FP receptor activity (PGF2α-induced calcium flux in FP-expressing CHEM1 cells); conditions: PGF2α 2 nM, some mean values of multiple determinations
Sequence (P43088 whole entry): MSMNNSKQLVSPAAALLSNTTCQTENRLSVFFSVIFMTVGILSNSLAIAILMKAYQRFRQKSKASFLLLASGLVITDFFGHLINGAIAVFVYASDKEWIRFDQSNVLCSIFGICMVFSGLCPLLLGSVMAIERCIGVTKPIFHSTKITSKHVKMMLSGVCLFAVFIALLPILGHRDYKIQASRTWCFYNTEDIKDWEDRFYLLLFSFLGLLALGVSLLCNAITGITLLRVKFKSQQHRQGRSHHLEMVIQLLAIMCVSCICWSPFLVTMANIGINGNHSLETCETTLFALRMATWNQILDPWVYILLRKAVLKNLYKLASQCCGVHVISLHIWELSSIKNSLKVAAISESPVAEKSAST
Readings of pIC50 for the listed molecules
The read-out pIC50 is expressed as -log10 of concentration in moles per litre.

Below: 5 molecules and their reported pIC50.
# MOLECULE, RESULT_VALUE
rows = [
    ("Cc1c(N2CCCCC2)nc2ccc(Br)cc2c1C(=O)NCC(CCC(=O)O)c1c(Cl)ccc(F)c1F (single isomer, unassigned; (-)) [Example 145]", 8.82),
    ("COCC1CCCN(c2nc3ccc(Br)cc3c(C(=O)NCC(CCC(=O)O)c3ccccc3Cl)c2C)C1 (stereo not drawn) [Example 93]", 7.10),
    ("Cc1c(N2CCCC(F)(F)C2)nc2ccc(Br)cc2c1C(=O)NCC(CCC(=O)O)c1c(F)ccc(F)c1Cl (single isomer, unassigned; (+)) [Example 217]", 7.30),
    ("Cc1c(N2CCC[C@@H]2C)nc2ccc(Br)cc2c1C(=O)NCC(CCC(=O)O)c1ccccc1Cl (single isomer, unassigned; (-)) [Example 80]", 7.01),
    ("Cc1c(N2CCCCC2)nc2ccc(Br)cc2c1C(=O)NCC(CCC(=O)O)c1c(F)cccc1C(F)(F)F (racemic) [Example 160]", 8.28),
]

Query block: // fetch pIC50 given entry Cc1c(N2CCCC(F)C2)nc2ccc(Br)cc2c1C(=O)NCC(CCC(=O)O)c1c(Cl)ccc(Cl)c1Cl (single isomer, unassigned) [Example 222]
Result block: 8.52

Query block: // fetch pIC50 given entry Cc1c(N2CC(F)(F)C2)nc2ccc(Br)cc2c1C(=O)NCC(CCC(=O)O)c1ccccc1Cl (racemic) [Example 75]
Result block: 6.92
